tested on: OVCAR-8
Field 'label' (enum: MET / NOT MET). Set to MET when GI50 is strictly under 10 µM; else NOT MET.

These recorded examples may help you get a feel for the data.
Lookup: Identify whether the compound C=C1CCC2C(C)(CCC=C(C)C)C(O)CCC2(C)C1Cc1c(OC)oc(C)c(C(=O)OC)c1=O (stereo not drawn) [Compound 14] records GI50 below 10 µM.
Found: MET

Lookup: Repeat with C=C1CCC2C(C)(CCC=C(C)C)C(O)CCC2(C)C1Cc1c(OC)oc(CO)c(C(=O)OC)c1=O (stereo not drawn) [Compound 13]
Found: NOT MET

Lookup: Now consider C=C1CC[C@@H]2[C@](C)(CC[C@H]3O[C@H](C=C(C)C)C[C@@]23C)[C@@H]1Cc1c(OC)oc(CO)c(C)c1=O [Compound 20] and answer again.
Found: NOT MET

Lookup: Okay, and C=C1CC[C@H]2[C@]3(C)C[C@@H](C=C(C)C)O[C@H]3CC[C@]2(C)[C@@H]1Cc1c(OC)oc(CO)c(C)c1=O [Compound 17] ?
Found: NOT MET

More entries:
Lookup: Hello, I'm reviewing records and need to know if GI50 of C=C1CCC2C(C)(CC(=O)C=C(C)C)C(O)CCC2(C)C1Cc1c(O)c(C)c(C)oc1=O (stereo not drawn) [Compound 7] is below 10 µM. Could you check?
Found: NOT MET

Lookup: # iterate: C=C1CC[C@@H]2[C@](C)(CC[C@H]3O[C@H](C=C(C)C)C[C@@]23C)[C@@H]1Cc1c(OC)oc(C)c(C)c1=O [Compound 22, O-methylated higginsianin A]
Found: MET
